These data points were gathered from patent US12630548B2.

# assay info: ChromlogD (lipophilicity)
# Assay type: physicochemical
# measurement parameters: pH 7.4
attribute measured: chromatographic logD
Respond numerically, and do not add a unit to the figure.

Value of measured chromatographic logD for the entry Cc1cccc(S(=O)(=O)N2CC(C(=O)N[C@@H](CNC(=O)CCCCc3ccc4c(n3)NCCC4)C(=O)O)C2)c1 [Example 6A] : 2.27
